FYI, the data here is from paper PMC5050486.

study target: caspase-3 (Homo sapiens, UniProt P42574)
Construct: purchased BioVision
Sequence (P42574 29-277): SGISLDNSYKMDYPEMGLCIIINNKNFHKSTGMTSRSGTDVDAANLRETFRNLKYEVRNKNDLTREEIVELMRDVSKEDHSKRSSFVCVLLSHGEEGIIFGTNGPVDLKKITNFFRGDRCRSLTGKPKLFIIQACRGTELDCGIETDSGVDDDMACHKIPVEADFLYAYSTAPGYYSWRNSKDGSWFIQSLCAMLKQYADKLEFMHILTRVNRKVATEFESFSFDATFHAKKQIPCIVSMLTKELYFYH
assay: Host protease FRET test, caspase-3
Format: biochemical
condition details: 33 μM drug, FRET; N/I = no FRET inhibition
experimental readout: Percent Inhibition with 33 μM of drug, Casp 3

# molecule, assay value
records = [
    ("CCCCCCCCCCCC[N+](C)(C)CCOc1ccccc1 [Domiphen bromide]", "N/I"),
    ("CCOc1nc2cccc(C(=O)OC(C)OC(=O)OC3CCCCC3)c2n1Cc1ccc(-c2ccccc2-c2nnn[nH]2)cc1 (stereo not shown) [Candesartan cilexetil]", "N/I"),
    ("CCCCC(CC)COC(=O)CC(C(=O)OCC(CC)CCCC)S(=O)(=O)O (stereo not shown) [Docusate sodium]", "N/I"),
    ("CCCCCCCCCCCCCCCC[N+](C)(C)Cc1ccccc1 [Cetalkonium chloride]", "N/I"),
]

* * *

study target: anthrax LF (Bacillus anthracis, UniProt P15917)
Sequence (P15917 34-809 limits assumed): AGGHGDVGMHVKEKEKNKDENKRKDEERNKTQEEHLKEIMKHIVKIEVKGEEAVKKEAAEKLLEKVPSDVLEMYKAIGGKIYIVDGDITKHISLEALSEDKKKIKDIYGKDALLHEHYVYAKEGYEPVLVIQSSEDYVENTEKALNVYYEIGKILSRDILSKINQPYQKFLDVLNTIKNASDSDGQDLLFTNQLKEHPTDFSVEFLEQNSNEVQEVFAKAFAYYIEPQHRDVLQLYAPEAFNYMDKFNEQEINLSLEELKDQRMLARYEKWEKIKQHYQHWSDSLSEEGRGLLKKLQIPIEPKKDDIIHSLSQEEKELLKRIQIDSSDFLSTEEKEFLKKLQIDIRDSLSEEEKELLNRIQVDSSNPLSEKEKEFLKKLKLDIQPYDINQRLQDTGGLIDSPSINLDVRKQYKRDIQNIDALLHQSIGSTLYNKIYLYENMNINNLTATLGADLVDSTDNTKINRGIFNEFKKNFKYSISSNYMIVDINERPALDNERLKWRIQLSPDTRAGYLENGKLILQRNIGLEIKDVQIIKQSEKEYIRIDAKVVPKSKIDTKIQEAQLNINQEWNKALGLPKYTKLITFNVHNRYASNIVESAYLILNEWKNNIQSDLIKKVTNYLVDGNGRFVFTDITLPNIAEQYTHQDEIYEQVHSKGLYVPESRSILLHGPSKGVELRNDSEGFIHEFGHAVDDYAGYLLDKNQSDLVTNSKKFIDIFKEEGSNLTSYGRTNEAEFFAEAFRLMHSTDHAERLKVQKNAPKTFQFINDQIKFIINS
assay: biochemical
Counter-ions that a name gives are not always drawn.
experimental readout: pIC50
Scale: pIC50 equals -log10([C]), with [C] in mol/L.

Task: Give reported pIC50 for CCCCCCCCCCCC[N+](C)(C)CCOc1ccccc1 [Domiphen bromide] (anthrax LF (Bacillus anthracis, UniProt P15917))
Output: 6.54

Task: Give reported pIC50 for CCOc1nc2cccc(C(=O)OC(C)OC(=O)OC3CCCCC3)c2n1Cc1ccc(-c2ccccc2-c2nnn[nH]2)cc1 (stereo not drawn) (anthrax LF (Bacillus anthracis, UniProt P15917))
Output: 6.40

Task: Give reported pIC50 for CCCCCCCCCCCCCCCC[N+](C)(C)Cc1ccccc1 [Cetalkonium chloride] (anthrax LF (Bacillus anthracis, UniProt P15917))
Output: 6.80

Task: Give reported pIC50 for CCCCC(CC)COC(=O)CC(C(=O)OCC(CC)CCCC)S(=O)(=O)O (stereo not drawn) [Docusate sodium] (anthrax LF (Bacillus anthracis, UniProt P15917))
Output: 6.17

Task: Give reported pIC50 for CCCCCCCCCCCCCCCC(=O)OC[C@H](O)[C@H]1OC(=O)C(O)=C1O [Ascorbic acid 6-palmitate] (anthrax LF (Bacillus anthracis, UniProt P15917))
Output: 6.34

Task: Give reported pIC50 for CCCCCCCCCCCCOS(=O)(=O)O [Sodium lauryl sulfate] (anthrax LF (Bacillus anthracis, UniProt P15917))
Output: 5.54

* * *

study target: anthrax LF (Bacillus anthracis, UniProt P15917)
assay: biochemical
pIC50: −log10 of the molar value. Where no end group is shown, it is not given here.
Answer rule not met if pIC50 is under 5, and rule met if it is 5 or more.

Task: Could you tell me if the measured pIC50 of RRRRRGGRRRR [Salmon Sperm Protamine (23-33)] reaches 5 or more?
Output: rule not met

Task: Could you tell me if the measured pIC50 of MPRRRRSSSRPVRRRRRPRVSR [Salmon Sperm Protamine (1-22)] reaches 5 or more?
Output: rule met

Task: Could you tell me if the measured pIC50 of QRQRSRRRRRRSCQTRR [Human Sperm Protamine (18-34)] reaches 5 or more?
Output: rule not met

Task: Could you tell me if the measured pIC50 of MPRRRRSSSR [Salmon Sperm Protamine (1-10)] reaches 5 or more?
Output: rule not met

Task: Could you tell me if the measured pIC50 of PVRRRRRPRVSR [Salmon Sperm Protamine (11-22)] reaches 5 or more?
Output: rule met

* * *

study target: anthrax LF (Bacillus anthracis, UniProt P15917)
assay: biochemical
condition details: read-out: LF IC50
experimental readout: IC50 (nM)
Respond numerically; units are nM and should not be typed.

Task: Give reported IC50 for CCCCCCCCCCCCc1ccccc1S(=O)(=O)O [Sodium dodecyl benzenesulfonate] (anthrax LF (Bacillus anthracis, UniProt P15917))
Output: 590

* * *

Assignment: determine reported inhibition at 33 µM for the given sequences.
study target: anthrax LF (Bacillus anthracis)
assay: biochemical
condition details: read-out: Percent Inhibition with 33 μM of drug, LF
Where no end group is shown, it is not given here.
Respond numerically; units are % and should not be typed.

Task: # return recorded inhibition at 33 µM for entry QRQRSRRRRRRSCQTRR [Human Sperm Protamine (18-34)]
Output: 72

Task: # return recorded inhibition at 33 µM for entry MPRRRRSSSRPVRRRRRPRVSRRRRRRGGRRRR [Salmon Sperm Protamine]
Output: 107

Task: # return recorded inhibition at 33 µM for entry RRRRRGGRRRR [Salmon Sperm Protamine (23-33)]
Output: 93

Task: # return recorded inhibition at 33 µM for entry PVRRRRRPRVSR [Salmon Sperm Protamine (11-22)]
Output: 95

Task: # return recorded inhibition at 33 µM for entry MARYRCCRSQSRSRYYRQRQRSRRRRRRSCQTRRRAMRCCRPRYRPRCRRH (cysteines drawn unpaired) [Human Sperm Protamine (1-51)]
Output: 88

Task: # return recorded inhibition at 33 µM for entry PVRRRRRPRVSRRRRRRGGRRRR [Salmon Sperm Protamine (11-33)]
Output: 99

Task: # return recorded inhibition at 33 µM for entry MPRRRRSSSR [Salmon Sperm Protamine (1-10)]
Output: 28

Task: # return recorded inhibition at 33 µM for entry MPRRRRSSSRPVRRRRRPRVSR [Salmon Sperm Protamine (1-22)]
Output: 98

* * *

study target: anthrax LF (Bacillus anthracis, UniProt P15917)
assay: biochemical
condition details: read-out: Percent Inhibition with 33 μM of drug, LF
Structures can show the parent of a compound that is named as a salt.
experimental readout: inhibition at 33 µM (%)
Respond numerically; units are % and should not be typed.

Task: # return recorded inhibition at 33 µM for entry CCOc1nc2cccc(C(=O)OC(C)OC(=O)OC3CCCCC3)c2n1Cc1ccc(-c2ccccc2-c2nnn[nH]2)cc1 (stereo not shown)
Output: 100

Task: # return recorded inhibition at 33 µM for entry CCCCCCCCCCCCOS(=O)(=O)O [Sodium lauryl sulfate]
Output: 93

Task: # return recorded inhibition at 33 µM for entry CCCCCCCCCCCCCCCC[N+](C)(C)Cc1ccccc1 [Cetalkonium chloride]
Output: 106

Task: # return recorded inhibition at 33 µM for entry CCCCCCCCCCCCCCCC(=O)OC[C@H](O)[C@H]1OC(=O)C(O)=C1O [Ascorbic acid 6-palmitate]
Output: 99

Task: # return recorded inhibition at 33 µM for entry CCCCC(CC)COC(=O)CC(C(=O)OCC(CC)CCCC)S(=O)(=O)O (stereo not shown) [Docusate sodium]
Output: 95

Task: # return recorded inhibition at 33 µM for entry CCCCCCCCCCCC[N+](C)(C)CCOc1ccccc1 [Domiphen bromide]
Output: 103

Task: # return recorded inhibition at 33 µM for entry CCCCCCCCCCCCc1ccccc1S(=O)(=O)O [Sodium dodecyl benzenesulfonate]
Output: 104

* * *

study target: human furin (Homo sapiens, UniProt P09958)
Construct: purchased New England Biolabs
Sequence (P09958 108-794): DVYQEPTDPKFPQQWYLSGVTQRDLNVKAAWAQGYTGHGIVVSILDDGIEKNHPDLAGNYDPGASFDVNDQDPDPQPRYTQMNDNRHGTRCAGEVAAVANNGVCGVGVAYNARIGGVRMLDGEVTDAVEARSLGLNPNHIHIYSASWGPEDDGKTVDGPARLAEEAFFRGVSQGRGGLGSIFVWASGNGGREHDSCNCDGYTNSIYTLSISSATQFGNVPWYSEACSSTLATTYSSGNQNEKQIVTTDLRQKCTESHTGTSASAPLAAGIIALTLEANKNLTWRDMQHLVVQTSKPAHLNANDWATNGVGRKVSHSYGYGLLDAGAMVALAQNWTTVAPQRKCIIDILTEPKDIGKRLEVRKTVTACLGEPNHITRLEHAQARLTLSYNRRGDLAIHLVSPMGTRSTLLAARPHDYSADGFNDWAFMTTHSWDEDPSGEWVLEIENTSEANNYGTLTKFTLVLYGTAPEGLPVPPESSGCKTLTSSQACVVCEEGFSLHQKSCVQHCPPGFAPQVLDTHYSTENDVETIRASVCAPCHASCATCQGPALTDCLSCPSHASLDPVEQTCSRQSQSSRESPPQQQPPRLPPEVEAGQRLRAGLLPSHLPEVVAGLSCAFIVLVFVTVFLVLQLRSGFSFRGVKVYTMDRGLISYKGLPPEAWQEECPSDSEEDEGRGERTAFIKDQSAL
assay: Host protease FRET test, furin
Type: biochemical
condition details: 33 μM drug, FRET; N/I = no FRET inhibition; read-out: Percent Inhibition with 33 μM of drug, Furin
Answer not met if inhibition at 33 µM is under 7%, and met if it is 7% or more.

Task: Could you tell me if the measured inhibition at 33 µM of CCCCCCCCCCCCCCCC[N+](C)(C)Cc1ccccc1 [Cetalkonium chloride] reaches 7% or more?
Output: met

Task: Could you tell me if the measured inhibition at 33 µM of CCCCCCCCCCCCc1ccccc1S(=O)(=O)O [Sodium dodecyl benzenesulfonate] reaches 7% or more?
Output: not met

Task: Could you tell me if the measured inhibition at 33 µM of CCCCC(CC)COC(=O)CC(C(=O)OCC(CC)CCCC)S(=O)(=O)O (stereo not drawn) [Docusate sodium] reaches 7% or more?
Output: met

Task: Could you tell me if the measured inhibition at 33 µM of CCOc1nc2cccc(C(=O)OC(C)OC(=O)OC3CCCCC3)c2n1Cc1ccc(-c2ccccc2-c2nnn[nH]2)cc1 (stereo not drawn) reaches 7% or more?
Output: met

Task: Could you tell me if the measured inhibition at 33 µM of CCCCCCCCCCCCCCCC(=O)OC[C@H](O)[C@H]1OC(=O)C(O)=C1O [Ascorbic acid 6-palmitate] reaches 7% or more?
Output: met
